# glycan array binding signal (z-score) listing for each entry below
# assay-target: Gal(b1-4)GlcNAc(b1-2)[Gal(b1-4)GlcNAc(b1-6)]Man(a1-6)[GlcNAc(b1-4)][Gal(b1-4)GlcNAc(b1-2)Man(a1-3)]Man(b1-4)GlcNAc(b1-4)GlcNAc
# assay-remarks: glycan array binding signal (z-score within array); higher = stronger binding
# conditions-used: glycan notation: IUPAC condensed, linker removed
About 410 targets per protein were measured; listed, in parts, are those with the strongest signals and a random draw of the rest.
Please reply with the number alone, leaving off any unit.

Consider the worked cases shown below.
binder	property-measured	observed-measurement
Epa15 (Candida glabrata) (protein) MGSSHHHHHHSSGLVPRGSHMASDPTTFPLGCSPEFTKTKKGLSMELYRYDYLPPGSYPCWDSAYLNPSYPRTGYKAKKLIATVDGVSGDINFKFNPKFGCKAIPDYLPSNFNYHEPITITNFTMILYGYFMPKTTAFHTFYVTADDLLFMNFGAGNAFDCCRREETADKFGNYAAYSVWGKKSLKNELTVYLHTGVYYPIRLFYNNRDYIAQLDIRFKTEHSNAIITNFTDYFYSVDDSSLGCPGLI	glycan array binding signal (z-score)	-0.041
LecB LY19 (Pseudomonas aeruginosa) (protein) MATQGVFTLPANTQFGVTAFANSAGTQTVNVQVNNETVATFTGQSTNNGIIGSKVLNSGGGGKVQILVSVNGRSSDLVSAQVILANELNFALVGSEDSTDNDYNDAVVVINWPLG	glycan array binding signal (z-score)	-0.542
ConA (Canavalia ensiformis), P02866 (protein) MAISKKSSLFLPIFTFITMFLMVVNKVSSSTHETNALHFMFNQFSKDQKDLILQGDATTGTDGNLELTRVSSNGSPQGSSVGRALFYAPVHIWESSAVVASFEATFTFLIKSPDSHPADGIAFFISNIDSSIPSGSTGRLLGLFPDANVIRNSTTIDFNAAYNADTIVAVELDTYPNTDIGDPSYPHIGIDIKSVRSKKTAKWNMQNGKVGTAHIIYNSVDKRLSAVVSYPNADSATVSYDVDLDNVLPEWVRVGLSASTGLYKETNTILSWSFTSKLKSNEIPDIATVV	glycan array binding signal (z-score)	-0.24
Pwp2 (Candida glabrata) (protein) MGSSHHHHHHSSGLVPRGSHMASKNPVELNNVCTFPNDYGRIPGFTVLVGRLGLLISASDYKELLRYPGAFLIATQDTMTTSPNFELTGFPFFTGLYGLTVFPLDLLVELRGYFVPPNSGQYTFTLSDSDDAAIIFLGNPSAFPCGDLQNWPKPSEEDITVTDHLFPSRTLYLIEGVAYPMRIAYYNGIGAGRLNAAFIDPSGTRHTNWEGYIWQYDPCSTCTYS	glycan array binding signal (z-score)	-0.569

Record summary for Clone646PsrP (Streptococcus pneumoniae) (protein) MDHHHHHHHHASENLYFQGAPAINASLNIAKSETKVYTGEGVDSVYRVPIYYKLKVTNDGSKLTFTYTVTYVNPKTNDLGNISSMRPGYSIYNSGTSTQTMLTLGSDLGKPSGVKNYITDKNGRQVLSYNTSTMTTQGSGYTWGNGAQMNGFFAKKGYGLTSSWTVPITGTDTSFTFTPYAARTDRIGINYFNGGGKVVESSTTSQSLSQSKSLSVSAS : reported glycan array binding signal (z-score) = -0.887

Measured glycan array binding signal (z-score), Epf (Streptococcus pyogenes) (protein) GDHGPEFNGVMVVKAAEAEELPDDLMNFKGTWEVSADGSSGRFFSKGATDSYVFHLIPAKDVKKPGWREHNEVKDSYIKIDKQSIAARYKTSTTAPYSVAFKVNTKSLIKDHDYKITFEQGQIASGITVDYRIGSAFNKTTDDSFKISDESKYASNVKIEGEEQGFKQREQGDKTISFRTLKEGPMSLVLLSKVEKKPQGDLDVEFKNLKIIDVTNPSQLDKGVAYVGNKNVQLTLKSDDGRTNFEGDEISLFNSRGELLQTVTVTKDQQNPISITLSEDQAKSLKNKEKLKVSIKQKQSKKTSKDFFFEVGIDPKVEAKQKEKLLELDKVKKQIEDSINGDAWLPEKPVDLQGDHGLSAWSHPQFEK : 3.4
